- assayProtocol: Oral bioavailability in rat at 10 mg/kg
- Format: ADME, organism-based
- conditionsUsed: in vivo
resultType: bioavailability (%)
Write the value in % as a bare number.

Ask: Tell me measured bioavailability for `O=C([C@@H]1CNC[C@]12CCCc1nc(Cl)ccc12)N1CC[C@@H](c2ccccc2)C[C@H]1C1CCCCC1` please.
Result: 44

###

- assayProtocol: Clearance in rat at 2 mg/kg, iv
- Assay type: ADME, organism-based
- Parameters: dose 2 mg/kg, route intravenous
- conditionsUsed: in vivo
resultType: clearance (mL/min/kg)
Write the value in mL/min/kg as a bare number.

Ask: Tell me measured clearance for `O=C([C@@H]1CNC[C@]12CCCc1nc(Cl)ccc12)N1CC[C@@H](c2ccccc2)C[C@H]1C1CCCCC1` please.
Result: 15
